# System: Escherichia coli TOP10;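 further: peptides expressed intracellularly from a pBAD plasmid library in pooled LB shake-flask culture, induced with 0.3% L-arabinose, DNA abundance read by NGS, three biological replicates, DESeq2 with apeglm shrinkage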
# EXPERIMENTAL DETAILS: shrunken log2 fold change of peptide-encoding DNA abundance (4.5 h post-induction vs induction); higher = less antimicrobial activity (less host growth inhibition)
# TEST SETTINGS: time post-induction: 4.5 h; library: site-saturation at positions 5, 18, 19, 20
Returns one of T or F; T when shrunken log2 fold change is >= -0.01.

A selection of reference data follows.
1. RRIRCRPPRLPRPRPRPCWAPRP	F
2. RRIRVRPPRLPRPRPRPLSQPRP	F
3. RRIRRRPPRLPRPRPRPEFPPRP	T
4. RRIRTRPPRLPRPRPRPWIIPRP	F
5. RRIRMRPPRLPRPRPRPSAMPRP	T

Could you tell me if the measured shrunken log2 fold change of "RRIRKRPPRLPRPRPRPSSPPRP" reaches -0.01 or more? F

Could you tell me if the measured shrunken log2 fold change of "RRIRHRPPRLPRPRPRPWVKPRP" reaches -0.01 or more? F
